These measurements were taken from paper PMC9597602.

# Test system: Candida tropicalis ATCC 750
# ASSAY PROTOCOL: Antifungal MIC assay, extended panel
# Type: cell-based
# CONDITION: extended panel, second batch; ≥80 or ≥50% inhibition
OUTCOME MEASURE: MIC Candida tropicalis ATCC 750

Look up and report measured MIC Candida tropicalis ATCC 750 for this entry: "Cc1c(C)c(C)[c-](C)c1C.Cc1c(C)c(C)[c-](C)c1C.[Cl-].[Cl-].[Cl-].[Cl-].[Rh+3].[Rh+3]" 391 to 781 nM

Look up and report measured MIC Candida tropicalis ATCC 750 for this entry: O=C([O][Ag])c1ccc(N2N=C(/C=C/C=C/c3ccccc3)CC2/C=C/c2ccccc2)cc1.O=C([O][Ag])c1ccc(N2N=C(/C=C/C=C/c3ccccc3)CC2/C=C/c2ccccc2)cc1 (racemic) ≤6 to 49 nM

Look up and report measured MIC Candida tropicalis ATCC 750 for this entry: COc1ccc(/C=C/C2=NN(c3ccc(C(=O)[O][Ag])cc3)C(c3ccc(OC)c(OC)c3)C2)cc1OC.COc1ccc(/C=C/C2=NN(c3ccc(C(=O)[O][Ag])cc3)C(c3ccc(OC)c(OC)c3)C2)cc1OC (racemic) ≤6 to 12 nM

* * *

Task for the reader: assign each of the following compounds its reported MIC Ab.
# Tested on: Acinetobacter baumannii ATCC 19606 type strain
# ASSAY PROTOCOL: CO-ADD antibacterial MIC assay
# Type: cell-based
# CONDITION: initial CO-ADD dose-response screening; ≥80% growth inhibition

Look up and report measured MIC Ab for this entry: O=C([O][Ag])c1ccc(N2N=C(/C=C/c3ccccc3)CC2c2ccccc2)cc1.O=C([O][Ag])c1ccc(N2N=C(/C=C/c3ccccc3)CC2c2ccccc2)cc1 (racemic) > 32 µg/mL

Look up and report measured MIC Ab for this entry: "Cc1cccc(C(=C=C(c2cccc(C)n2)C(C)(C)C)c2ccccc2)n1.[Cl][Pt]([Cl])([Cl])[Cl]" > 32 µg/mL

Look up and report measured MIC Ab for this entry: O=[N+]([O-])[O-].[Ag+] [AgNO3, reference compound] 0.25 µg/mL

Look up and report measured MIC Ab for this entry: "C1=CCCC=CCC1.[Cl][Pd][Cl]" >20 µM

Look up and report measured MIC Ab for this entry: "CC(=NN=C(N)[S-])C(C)=NN=C(N)[S-].O=[N+]([O-])[O-].[Co+3].c1c[nH]cn1.c1c[nH]cn1" >32 µg/mL

Look up and report measured MIC Ab for this entry: COc1ccc(/C=C/C2=NN(c3ccc(C(=O)[O][Ag])cc3)C(c3ccc(OC)c(OC)c3)C2)cc1OC.COc1ccc(/C=C/C2=NN(c3ccc(C(=O)[O][Ag])cc3)C(c3ccc(OC)c(OC)c3)C2)cc1OC (racemic) >32 µg/mL

Look up and report measured MIC Ab for this entry: "O=C([O][Eu]([O]C(=O)c1ccccc1F)[O]C(=O)c1ccccc1F)c1ccccc1F.c1cnc2c(c1)ccc1cccnc12" > 20 µM

Look up and report measured MIC Ab for this entry: "Cc1ccc2ccc3ccc(C)nc3c2n1.Cc1ccc2ccc3ccc(C)nc3c2n1.O=C([O][Eu]([O]C(=O)c1ccccc1F)[O]C(=O)c1ccccc1F)c1ccccc1F" >20 µM

* * *

# Tested on: Candida glabrata ATCC 90030 NCCLS 84
# ASSAY PROTOCOL: Antifungal MIC assay, extended panel
# Format: cell-based
# CONDITION: extended panel; 50% inhibition, MIC score 2
Task for the reader: assign each of the following molecules its reported MIC50 Candida glabrata ATCC 90030.

Report measured MIC50 Candida glabrata ATCC 90030 on Candida glabrata ATCC 90030 NCCLS 84; entry: Cc1c(C)c(-c2ccc(-c3ccccc3)cc2)[c-](C)c1C.Cc1ccccc1NC1=[NH+][Ir]([Cl])[NH]C(NS(=O)(=O)c2ccc([N+](=O)[O-])cc2)=N1 [Ir2] 0.098 to 0.195 µM

Report measured MIC50 Candida glabrata ATCC 90030 on Candida glabrata ATCC 90030 NCCLS 84; entry: O=C([O][Ag])c1ccc(N2N=C(/C=C/C=C/c3ccccc3)CC2/C=C/c2ccccc2)cc1.O=C([O][Ag])c1ccc(N2N=C(/C=C/C=C/c3ccccc3)CC2/C=C/c2ccccc2)cc1 (racemic) [Ag2] 0.006 to 0.195 µM

Report measured MIC50 Candida glabrata ATCC 90030 on Candida glabrata ATCC 90030 NCCLS 84; entry: c1ccc([PH]([Au][S]c2ccccn2)(c2ccccc2)c2ccccc2)cc1 [Au2] > 200 µM

Report measured MIC50 Candida glabrata ATCC 90030 on Candida glabrata ATCC 90030 NCCLS 84; entry: Cc1c(C)c(-c2ccc(-c3ccccc3)cc2)[c-](C)c1C.Cc1ccccc1NC1=[NH+][Ir]([Cl])[NH]C(NS(=O)(=O)c2cccc3c(N(C)C)cccc23)=N1 [Ir3] 0.098 µM

Report measured MIC50 Candida glabrata ATCC 90030 on Candida glabrata ATCC 90030 NCCLS 84; entry: CS(=O)(=O)[O][Pd][c]1ccccc1-c1ccccc1N.CS(=O)(=O)[O][Pd][c]1ccccc1-c1ccccc1N [Pd2] 0.012 to 0.195 µM

Report measured MIC50 Candida glabrata ATCC 90030 on Candida glabrata ATCC 90030 NCCLS 84; entry: c1cnc([S][Au][PH](c2ccco2)(c2ccco2)c2ccco2)nc1 [Au1] 0.098 to 0.391 µM

Report measured MIC50 Candida glabrata ATCC 90030 on Candida glabrata ATCC 90030 NCCLS 84; entry: Cc1c(C)c(C)[c-](C)c1C.Cc1c(C)c(C)[c-](C)c1C.[Cl-].[Cl-].[Cl-].[Cl-].[Rh+3].[Rh+3] [Rh1] 0.391 to 6.25 µM

Report measured MIC50 Candida glabrata ATCC 90030 on Candida glabrata ATCC 90030 NCCLS 84; entry: COc1ccc(/C=C/C2=NN(c3ccc(C(=O)[O][Ag])cc3)C(c3ccc(OC)c(OC)c3)C2)cc1OC.COc1ccc(/C=C/C2=NN(c3ccc(C(=O)[O][Ag])cc3)C(c3ccc(OC)c(OC)c3)C2)cc1OC (racemic) [Ag1] ≤ 0.006 µM
